pIC50 overview
- target_under_test: KRas(G12V) (Homo sapiens (Human), UniProt P01116, G12V)
- Sequence (P01116-2 other isoform, or with tags, fused parts or gaps G12V): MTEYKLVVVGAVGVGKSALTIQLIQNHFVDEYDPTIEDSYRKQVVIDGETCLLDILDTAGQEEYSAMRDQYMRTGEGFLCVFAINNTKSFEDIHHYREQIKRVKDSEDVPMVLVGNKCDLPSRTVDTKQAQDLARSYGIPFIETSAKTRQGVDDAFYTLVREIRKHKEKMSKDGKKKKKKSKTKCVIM
- method_description: KRas(G12V) GDP HTRF (BODIPY-GDP exchange TR-FRET)
pIC50: −log10 of the molar value.

| compound | pIC50 |
| --- | --- |
| Cc1cc(N)nc(-c2c(Cl)c3c4c(nc(OCC5(C#N)CC5)nc4c2F)N([C@H](C)c2cccnc2N)CCO3)c1C(F)(F)F (atropisomer, axis not shown) | 9.11 |
| Cc1cc(N)nc(-c2c(Cl)c3c4c(nc(OC[C@@H]5C[C@@]6(CN5C)CC6(F)F)nc4c2F)N([C@H](C)c2nccnc2N)CCO3)c1C(F)(F)F (atropisomer, axis not shown) [Example 171b] | 6.05 |
| C=C1CN2CCC[C@@]2(COc2nc3c4c(c(Cl)c(-c5nc(N)cc(C)c5C(F)(F)F)cc4n2)OCCN3C)C1 | 8.57 |
| Cc1cc(N)nc(-c2c(Cl)c3c4c(nc(OC[C@@H]5C[C@@]6(CN5C)CC6(F)F)nc4c2F)N([C@H](C)c2cccnc2N)CCO3)c1C(F)(F)F (atropisomer, axis not shown) | 9.77 |
| Cc1cc(N)nc(-c2c(Cl)c3c4c(nc(OC[C@]56CCCN5CCOC6)nc4c2F)N([C@H](C)c2cccnc2N)CCO3)c1C(F)(F)F (atropisomer, axis not shown) [Example 128a] | 10.05 |
| Cc1cc(N)nc(-c2c(Cl)c3c4c(nc(OC[C@@H]5CC(F)(F)CN5C)nc4c2F)N([C@H](C)c2cccnc2N)CCO3)c1C(F)(F)F (atropisomer, axis not shown) | 9.70 |
| Cc1cc(N)nc(-c2c(F)c3c4c(nc(OC[C@@]56CCCN5C[C@H](F)C6)nc4c2F)N([C@H](C)c2cccnc2N)CCO3)c1C(F)(F)F (atropisomer, axis not shown; (aS)) [Example 66a] | 10.30 |
| Cc1cc(N)nc(-c2c(Cl)c3c4c(nc(OC[C@@H]5CC[C@H]6CO[C@H](C)CN56)nc4c2F)N([C@H](C)c2cccnc2N)CCO3)c1C(F)(F)F (atropisomer, axis not shown; (aS)) [Example 93c] | 10.15 |
| Cc1cc(N)nc(-c2cc3ncnc4c3c(c2Cl)OC[C@H](CC#N)N4C)c1C(F)(F)F | 5.70 |
| Cc1cc(N)nc(-c2c(Cl)c3c4c(nc(OC[C@@H]5C[C@]6(CN5C)CC6(F)F)nc4c2F)N([C@H](C)c2cccnc2N)CCO3)c1C(F)(F)F (atropisomer, axis not shown) | 10.00 |
| Cc1cc(N)nc(-c2c(Cl)c3c4c(nc(OC[C@@H]5C[C@@H](F)CN5C)nc4c2F)N([C@H](C)c2cccnc2N)CCO3)c1C(F)(F)F (atropisomer, axis not shown) | 9.89 |
| C[C@H](c1cccnc1N)N1CCOc2c(Cl)c(-c3cccc4sc(N)nc34)c(F)c3nc(OC[C@@]45CCCN4C[C@H](F)C5)nc1c23 (atropisomer, axis not shown; (aS)) [Example 100a] | 10.52 |
| Cc1cc(N)nc(-c2c(Cl)c3c4c(nc(OC[C@@H]5CC(F)(F)CN5C)nc4c2F)N([C@H](C)c2ccnnc2N)CCO3)c1C(F)(F)F (atropisomer, axis not shown) | 10.05 |
| Cc1cc(N)nc(-c2c(Cl)c3c4c(nc(OC[C@@H]5CCCN5CC(F)F)nc4c2F)N([C@H](C)c2nccnc2N)CCO3)c1C(F)(F)F (atropisomer, axis not shown) [Example 158a] | 9.12 |
| Cc1cc(N)nc(-c2c(Cl)c3c4c(nc(OCCC5CCCN5C)nc4c2F)N([C@H](C)c2cccnc2N)CCO3)c1C(F)(F)F (some centres unmarked) | 10.10 |
| Cc1cc(N)nc(-c2c(Cl)c3c4c(nc(OC[C@H]5CC[C@@H]6COCCN65)nc4c2F)N([C@H](C)c2cncnc2N)CCO3)c1C(F)(F)F (atropisomer, axis not shown; (aR)) [Example 102b] | 9.77 |
| Cc1cc(N)nc(-c2cc3nc(OCC4(N(C)C)COC4)nc4c3c(c2Cl)OCCN4Cc2cccnc2N)c1C(F)(F)F | 7.39 |
| Nc1ncccc1CN1CCOc2c(Cl)c(-c3cccc4c3CCC4)cc3nc(OC[C@@]45CCCN4C[C@H](F)C5)nc1c23 | 8.06 |
| Cc1cc(N)nc(-c2c(Cl)c3c4c(nc(OC[C@@]56CCCN5C[C@H](F)C6)nc4c2F)N(C)CCO3)c1C(F)(F)F (single isomer, unassigned) [Example 41b] | 5.92 |
| Cc1cc(N)nc(-c2c(Cl)c3c4c(nc(OCCN5CCN(C)CC5)nc4c2F)N([C@H](C)c2cccnc2N)CCO3)c1C(F)(F)F (atropisomer, axis not shown) | 10.10 |
